Entry source: patent US20120263649A1

Target: Ag85C (Mycobacterium tuberculosis)
Sequence (P9WQN9 46-340): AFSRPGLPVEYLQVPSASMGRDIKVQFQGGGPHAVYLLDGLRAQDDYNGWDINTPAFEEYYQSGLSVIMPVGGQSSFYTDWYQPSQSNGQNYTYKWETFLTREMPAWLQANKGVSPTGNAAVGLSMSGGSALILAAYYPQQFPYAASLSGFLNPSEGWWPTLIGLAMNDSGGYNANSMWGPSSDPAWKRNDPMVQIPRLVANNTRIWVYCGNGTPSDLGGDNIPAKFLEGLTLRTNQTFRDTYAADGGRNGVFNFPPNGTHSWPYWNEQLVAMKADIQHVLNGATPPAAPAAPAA
Type: biochemical
Conditions: ratio of peak height of mono-hexanoyl ester of labelled/derivatised Tre to peak height of labelled/derivatised Tre; 500 μM di-hexanoyl ester, 500 μM substrate, 100 nM enzyme, 1 mM TEA pH 7.2, 37° C; compound 1 (Tre) = 100
# Relative substrate response towards transesterification, Ag85C values compiled below
measured_parameter: Relative substrate response towards transesterification, Ag85C

{"columns": ["molecule", "test_value"],
 "data": [
  ["[N-]=[N+]=NCC1O[C@H](O[C@H]2OC(CO)[C@@H](O)C(O)C2O)C(O)C(O)[C@@H]1O (stereo partly shown)", 64],
  ["OCC1O[C@H](O[C@@H]2CC(O)[C@H](O)C(CO)O2)CC(O)[C@@H]1O (stereo partly shown)", 129],
  ["OCC1O[C@H](O[C@H]2OC(CO)[C@@H](O)C(O)C2F)C(F)C(O)[C@@H]1O (stereo partly shown)", 98],
  ["C[C@]1(O[C@H]2OC(CO)[C@@H](O)C(O)C2O)OC(CO)[C@@H](O)C(O)C1O (stereo partly shown)", 111],
  ["C[C@]1(O[C@H]2OC(CO)[C@@H](O)C(O)C2NC(=S)Nc2ccc(-c3c4ccc(=O)cc-4oc4cc(O)ccc34)c(C(=O)O)c2)OC(CO)[C@@H](O)C(O)C1O (stereo partly shown)", 44],
  ["C[C@]1(O[C@H]2OC(CO)[C@@H](O)C(O)C2F)OC(CO)[C@@H](O)C(O)C1O (stereo partly shown)", 102],
  ["OC[C@H]1O[C@H](O[C@H]2O[C@H](CO)[C@H](F)[C@H](O)[C@H]2O)[C@H](O)[C@@H](O)[C@@H]1O", 91],
  ["COP(=O)(O)OCC1O[C@H](O[C@H]2OC(CO)[C@@H](O)C(O)C2O)C(O)C(O)[C@@H]1O (stereo partly shown)", 113],
  ["OCC1O[C@H](O[C@H]2OC(CF)[C@@H](O)C(O)C2O)C(O)C(O)[C@@H]1O (stereo partly shown)", 91],
  ["O=P1(O)OCC2O[C@H](O[C@H]3OC(CO)[C@@H](O)C(O)C3O)C(O)C(O)[C@@H]2O1 (stereo partly drawn) [Compound 17, 4,6-(monohydrogen)phosphoryl-D-trehalose]", 94],
  ["OCC1O[C@H](O[C@@H]2OC(CO)[C@@H](O)C(O)C2F)C(F)C(O)[C@@H]1O (stereo partly shown)", 82],
  ["OC[C@H]1O[C@H](O[C@H]2O[C@H](CO)[C@@H](O)[C@H](O)[C@H]2O)[C@H](O)[C@@H](O)[C@@H]1O [Compound 1, trehalose, reference compound]", 100],
  ["C[C@]1(O[C@H]2OC(CO)[C@@H](O)C(O)C2F)OC(CO)[C@H](O)C(O)C1O (stereo partly shown)", 64]
]}
